Ref: the supplement of paper PMC11246515

- EXPERIMENT SUMMARY: total protein half-life in vivo (active degradation + dilution); higher = more stable protein
- CONDITION DETAILS: E. coli NCM3722 delta-clpP delta-lon delta-hslV; growth: N-lim chemostat; doubling time 6 h
Listed here: items and their measured total protein half-life in vivo.
Quick reminder: number only, in h, skip the unit.

SEQUENCE	total protein half-life in vivo [h]
MLLSIITVAFRNLEGIVKTHASLAHLAQVEDISFEWIVVDGGSNDGTREYLENLNGIFNLRFVSEPDNGIYDAMNKGIAMAQGKFALFLNSGDIFHQNAANFVRKLKMQKDNVMITGDALLDFGDGHKIKRSAKPGWYIYHSLPASHQAIFFPVSGLKKWRYDLEYKVSSDYALAAKMYKAGYAFKKLNGLVSEFSMGGVSTTNNMELCADAKKVQRQILHVPGFWAELSWHLRQRTTSKTKALYNKV	4.85
MGQLIDGVWHDTWYDTKSTGGKFQRSASAFRNWLTADGAPGPTGTGGFIAEKDRYHLYVSLACPWAHRTLIMRKLKGLEPFISVSVVNPLMLENGWTFDDSFPGATGDTLYQNEFLYQLYLHADPHYSGRVTVPVLWDKKNHTIVSNESAEIIRMFNTAFDALGAKAGDYYPPALQTKIDELNGWIYDTVNNGVYKAGFATSQEAYDEAVAKVFESLARLEQILGQHRYLTGNQLTEADIRLWTTLVRFDPVYVTHFKCDKHRISDYLNLYGFLRDIYQMPGIAETVNFDHIRNHYFRSHKTINPTGIISIGPWQDLDEPHGRDVRFG	6.05
MNNRVHQGHLARKRFGQNFLNDQFVIDSIVSAINPQKGQAMVEIGPGLAALTEPVGERLDQLTVIELDRDLAARLQTHPFLGPKLTIYQQDAMTFNFGELAEKMGQPLRVFGNLPYNISTPLMFHLFSYTDAIADMHFMLQKEVVNRLVAGPNSKAYGRLSVMAQYYCNVIPVLEVPPSAFTPPPKVDSAVVRLVPHATMPHPVKDVRVLSRITTEAFNQRRKTIRNSLGNLFSVEVLTGMGIDPAMRAENISVAQYCQMANYLAENAPLQES	5.45

Consider `MASQLTDAFARKFYYLRLSITDVCNFRCTYCLPDGYKPSGVTNKGFLTVDEIRRVTRAFARLGTEKVRLTGGEPSLRRDFTDIIAAVRENDAIRQIAVTTNGYRLERDVASWRDAGLTGINVSVDSLDARQFHAITGQDKFNQVMAGIDAAFEAGFEKVKVNTVLMRDVNHHQLDTFLNWIQHRPIQLRFIELMETGEGSELFRKHHISGQVLRDELLRRGWIHQLRQRSDGPAQVFCHPDYAGEIGLIMPYEKDFCATCNRLRVSSIGKLHLCLFGEGGVNLRDLLEDDTQQQALEARISAALREKKQTHFLHQNNTGITQNLSYIGG` . Its measured total protein half-life in vivo is 3.3

For this sequence ( `MTPEHLPTEQYEAQLAEKVVRLQSMMAPFSDLVPEVFRSPVSHYRMRAEFRIWHDGDDLYHIIFDQQTKSRIRVDSFPAASELINQLMTAMIAGVRNNPVLRHKLFQIDYLTTLSNQAVVSLLYHKKLDDEWRQEAEALRDALRAQNLNVHLIGRATKTKIELDQDYIDERLPVAGKEMIYRQVENSFTQPNAAMNIQMLEWALDVTKGSKGDLLELYCGNGNFSLALARNFDRVLATEIAKPSVAAAQYNIAANHIDNVQIIRMAAEEFTQAMNGVREFNRLQGIDLKSYQCETIFVDPPRSGLDSETEKMVQAYPRILYISCNPETLCKNLETLSQTHKVERLALFDQFPYTHHMECGVLLTAK` ), measured total protein half-life in vivo is 6.08

Just so you know, measured total protein half-life in vivo for `MPEVQTDHPETAELSKPQLRMVDLNLLTVFDAVMQEQNITRAAHVLGMSQPAVSNAVARLKVMFNDELFVRYGRGIQPTARAFQLFGSVRQALQLVQNELPGSGFEPASSERVFHLCVCSPLDSILTSQIYNHIEQIAPNIHVMFKSSLNQNTEHQLRYQETEFVISYEDFHRPEFTSVPLFKDEMVLVASKNHPTIKGPLLKHDVYNEQHAAVSLDRFASFSQPWYDTVDKQASIAYQGMAMMSVLSVVSQTHLVAIAPRWLAEEFAESLELQVLPLPLKQNSRTCYLSWHEAAGRDKGHQWMEEQLVSICKR` came out at 5.69

Sample MTIHKKGQAHWEGDIKRGKGTVSTESGVLNQQPYGFNTRFEGEKGTNPEELIGAAHAACFSMALSLMLGEAGFTPTSIDTTADVSLDKVDAGFAITKIALKSEVAVPGIDASTFDGIIQKAKAGCPVSQVLKAEITLDYQLKS [P0C0L2] ; total protein half-life in vivo observed: 5.71

GET /value?item= MMNPLIIKLGGVLLDSEEALERLFSALVNYRESHQRPLVIVHGGGCVVDELMKGLNLPVKKKNGLRVTPADQIDIITGALAGTANKTLLAWAKKHQIAAVGLFLGDGDSVKVTQLDEELGHVGLAQPGSPKLINSLLENGYLPVVSSIGVTDEGQLMNVNADQAATALAATLGADLILLSDVSGILDGKGQRIAEMTAAKAEQLIEQGIITDGMIVKVNAALDAARTLGRPVDIASWRHAEQLPALFNGMPMGTRILA [P0A6C8] &field=total protein half-life in vivo returns 4.97

total protein half-life in vivo measured on `MVINCAFIGFGKSTTRYHLPYVLNRKDSWHVAHIFRRHAKPEEQAPIYSHIHFTSDLDEVLNDPDVKLVVVCTHADSHFEYAKRALEAGKNVLVEKPFTPTLAQAKELFALAKSKGLTVTPYQNRRFDSCFLTAKKAIESGKLGEIVEVESHFDYYRPVAETKPGLPQDGAFYGLGVHTMDQIISLFGRPDHVAYDIRSLRNKANPDDTFEAQLFYGDLKAIVKTSHLVKIDYPKFIVHGKKGSFIKYGIDQQETSLKANIMPGEPGFAADDSVGVLEYVNDEGVTVREEMKPEMGDYGRVYDALYQTITHGAPNYVKESEVLTNLEILERGFEQASPSTVTLAK` = 5.85

`MKTSVRIGAFEIDDGELHGESPGDRTLTIPCKSDPDLCMQLDAWDAETSIPALLNGEHSVLYRTRYDQQSDAWIMRLA` has a reported total protein half-life in vivo of 2.16

Measured total protein half-life in vivo, `MNMMRIFYIGLSGVGMMFSSMASGNDAGGLQSPACGVVCDPYICVNSDGISPELTRKYLGEKAAENLQSLQGYDPSEFTFANGVFCDVKEKLCRDDRYFGVDGKRSGKINQTTTKMLFMCRE` : 5.09
